- TARGET SYSTEM: Rvs167, P39743
- Sequence (P39743 419-482): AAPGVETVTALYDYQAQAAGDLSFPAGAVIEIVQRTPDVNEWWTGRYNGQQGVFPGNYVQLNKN
- PROCEDURE TEXT: SPOT array
- EXPERIMENTAL SETUP: median of control spots 2707
QUANTITY NAME: SPOT intensity

(1) LEFRAILFIPKRAPF
(2) MKRSRPSRSIPYTTP
(3) VAPPPLPNRQLPNLD
(4) NENKKLPPAPTVFGL
(5) APPPPPRRATPEKKP
[in] Using the list above, order everything by rising SPOT intensity. Write out the labels following the order that was asked for.
[out] 1, 4, 2, 5, 3

(I) NSMRPPLLIPAATTK
(II) YSRKKLPVVLSKMTL
[in] When their SPOT intensity values are compared, which is larger, I or II ? Provide the label of your selected option as the answer.
[out] II
